# Procedure Text: Lipophilicity determination by HPLC (capacity factor k, distribution coefficients DpH)
# Assay type: physicochemical
# Measurement Context: MeOH 72 % / acetate-buffered saline pH 6.5 28 %
# From the text: An HPLC system Agilent 1200 equipped with a DAD detector (Agilent, Santa Clara, CA, USA) was used. A chromatographic column Symmetry® C18 5 μm, 4.6×250 mm, part No. WAT054275 (Waters Corp., Milford, MA, USA) was used. The HPLC separation process was monitored and evaluated with EZChrom Elite software ver. 3.3.2 [53] (Agilent). […] (72 %) and acetate-buffered saline (pH 7.4 and pH 6.5) (28 %) as a mobile phase was used for the determination of distribution coefficients expressed as D7.4 and D6.5. […]
Observation Type: log D6.5

Entry O=C(Nc1ccc(Cl)cc1)c1ccc2ccccc2c1O — recorded log D6.5 = 0.7640

Entry O=C(Nc1ccc(Cl)c(Cl)c1)c1ccc2ccccc2c1O — recorded log D6.5 = 0.9048

Entry O=C(Nc1cc(Cl)ccc1Cl)c1ccc2ccccc2c1O — recorded log D6.5 = 0.3949
